Let's look at some compounds and their measured pEC50.
- studyTarget: PPAR-alpha (UniProt Q07869)
- Sequence (Q07869 1-468): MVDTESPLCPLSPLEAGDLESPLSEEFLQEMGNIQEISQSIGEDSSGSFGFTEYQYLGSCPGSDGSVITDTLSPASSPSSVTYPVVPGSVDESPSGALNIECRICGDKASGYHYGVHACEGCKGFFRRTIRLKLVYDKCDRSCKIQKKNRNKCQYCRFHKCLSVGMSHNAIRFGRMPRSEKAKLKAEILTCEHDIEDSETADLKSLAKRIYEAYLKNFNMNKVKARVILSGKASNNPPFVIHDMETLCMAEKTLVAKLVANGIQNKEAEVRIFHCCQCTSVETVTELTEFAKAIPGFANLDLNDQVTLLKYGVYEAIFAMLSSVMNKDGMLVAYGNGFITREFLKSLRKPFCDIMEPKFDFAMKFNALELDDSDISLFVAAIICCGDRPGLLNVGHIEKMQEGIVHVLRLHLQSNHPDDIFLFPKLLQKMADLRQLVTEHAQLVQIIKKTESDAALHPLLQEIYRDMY
- assayNotes: PPAR-alpha transactivation assay (GAL4 chimera, luciferase reporter) in CV-1 cells
- Type: cell-based, murine and human
- runConditions: GAL4-PPAR LBD chimera
pEC50: −log10 of the molar value.

{"columns": ["compound", "pEC50"],
 "data": [
  ["O=C(O)Cc1csc2ccc(S(=O)(=O)N3CCN(c4ccc(C(F)(F)F)c(F)c4)CC3)cc12", "> 5.30"],
  ["O=C(O)C1Cc2cccc(S(=O)(=O)N3CCN(c4cccc(C(F)(F)F)c4)CC3)c2C1 (stereo not shown)", "4.00 to 5.30"],
  ["COc1ccc2c(CC(=O)O)csc2c1S(=O)(=O)N1CCN(c2ccc(C(F)(F)F)cn2)CC1", "< 4.00"],
  ["C[C@H]1CN(c2ccc(OC(F)(F)F)cc2)CCN1S(=O)(=O)c1cccc2c1CC(C(=O)O)C2 (stereo partly shown)", "4.00 to 5.30"]
]}

----------
- studyTarget: PPAR-alpha (UniProt Q07869)
- assayNotes: PPAR-alpha transactivation assay (GAL4 chimera, luciferase reporter) in CV-1 cells
- runConditions: GAL4-PPAR LBD chimera
pEC50: −log10 of the molar value.
The following molecules are listed with their measured pEC50 values.

{"columns": ["molecule", "pEC50"],
 "data": [
  ["CC1CN(S(=O)(=O)c2ccc3scc(CC(=O)O)c3c2)C(C)CN1c1ccc(C(F)(F)F)cn1 (stereo not shown) [Example 44]", "< 4.00"],
  ["C[C@@H]1CN(c2ccc(C(F)(F)F)cn2)C[C@H](C)N1S(=O)(=O)c1ccc2c(c1)C(C(=O)O)CC2 (single isomer, unassigned) [Example 75]", "4.00 to 5.30"],
  ["C[C@@H]1CN(c2ccc(OC(F)(F)F)cn2)C[C@H](C)N1S(=O)(=O)c1cccc2c1CC(C(=O)O)C2 (stereo partly shown) [Example 99]", "4.00 to 5.30"],
  ["C[C@@H]1CN(c2cc(F)c(Cl)c(F)c2)C[C@H](C)N1S(=O)(=O)c1cccc2c1CC(C(=O)O)C2 (stereo partly shown) [Example 124]", "< 4.00"],
  ["O=C(O)CN1CCc2ccc(S(=O)(=O)N3CCN(c4ccc(OC(F)(F)F)cc4)CC3)cc21 [Example 91]", "4.00 to 5.30"],
  ["C[C@@H]1CN(c2ccc(C(F)(F)F)cn2)C[C@H](C)N1S(=O)(=O)c1ccc2c(c1)C(C)(C(=O)O)CC2 (stereo partly shown) [Example 28]", "< 4.00"],
  ["O=C(O)C1CCc2ccc(S(=O)(=O)N3CCN(c4ccc(Cl)c(Cl)c4)CC3)cc21 (stereo not shown) [Example 46]", "> 5.30"],
  ["CC1(C)CN(c2ccc(C(F)(F)F)cn2)CCN1S(=O)(=O)c1ccc2c(c1)C(C(=O)O)CC2 (stereo not shown) [Example 38]", "> 5.30"],
  ["C[C@@H]1CN(c2ccc(Cl)cc2)C[C@H](C)N1S(=O)(=O)c1cccc2c1CC(C(=O)O)C2 (single isomer, unassigned) [Example 128]", "< 4.00"],
  ["CC1(C(=O)O)Cc2ccc(S(=O)(=O)N3CCN(c4ccc(C(F)(F)F)cn4)CC3)cc2C1 (stereo not shown) [Example 13]", "4.00 to 5.30"],
  ["O=C(O)C1Cc2cccc(S(=O)(=O)N3CCN(Cc4ccc(OC(F)(F)F)cc4)CC3)c2C1 (stereo not shown) [Example 98]", "4.00 to 5.30"],
  ["C[C@@H]1CN(c2ccc(OC(F)(F)F)cc2)C[C@H](C)N1S(=O)(=O)c1ccc2scc(CC(=O)O)c2c1 [Example 100]", "4.00 to 5.30"],
  ["CC1CN(S(=O)(=O)c2cccc3c2CC(C(=O)O)C3)C(C)CN1c1ccc(C(F)(F)F)cn1 (single isomer, unassigned) [Example 118]", "< 4.00"],
  ["C[C@@H]1CN(S(=O)(=O)c2ccc3c(c2)C(C(=O)O)CC3)CCN1c1ccc(C(F)(F)F)cn1 (stereo partly shown) [Example 25]", "> 5.30"],
  ["C[C@@H]1CN(c2ccc(OC(F)(F)F)cc2)C[C@H](C)N1S(=O)(=O)c1ccc2c(c1)C(C(=O)O)CC2 (stereo partly shown) [Example 51]", "> 5.30"],
  ["C[C@@H]1CN(c2ccc(C(F)(F)F)c(F)c2)C[C@H](C)N1S(=O)(=O)c1cccc2c1CC(C(=O)O)C2 (stereo partly shown) [Example 83]", "4.00 to 5.30"],
  ["C[C@H]1CN(S(=O)(=O)c2ccc3c(c2)C(C(=O)O)CC3)C[C@H](C)N1c1ccc(C(F)(F)F)cn1 (stereo partly shown) [Example 69]", "> 5.30"],
  ["O=C(O)C1Cc2ccc(S(=O)(=O)N3CCN(c4ccc(C(F)(F)F)cc4)CC3)cc2C1 (stereo not shown) [Example 5]", "4.00 to 5.30"],
  ["O=C(O)C1CCc2ccc(S(=O)(=O)N3CCN(c4ccc(C(F)(F)F)cc4F)CC3)cc21 (stereo not shown) [Example 45]", "> 5.30"],
  ["CC1CN(S(=O)(=O)c2cccc3c2CC(C(=O)O)C3)C(C)CN1c1ccc(C(F)(F)F)cn1 (single isomer, unassigned) [Example 119]", "< 4.00"],
  ["O=C(O)CC1Cc2cccc(S(=O)(=O)N3CCN(c4ccc(C(F)(F)F)cc4)CC3)c2C1 (stereo not shown) [Example 2]", "< 4.00"],
  ["C[C@@H]1CN(c2ccc(OC(F)(F)F)cc2)C[C@H](C)N1S(=O)(=O)c1cccc2c1CC(C(=O)O)C2 (stereo partly shown) [Example 79]", "< 4.00"],
  ["C[C@H]1CN(c2ccc(Cl)c(Cl)c2)CCN1S(=O)(=O)c1ccc2c(c1)C(C(=O)O)CC2 (stereo partly shown) [Example 61]", "> 5.30"],
  ["O=C(O)C1Cc2ccc(S(=O)(=O)N3CCN(c4cccc(C(F)(F)F)c4)CC3)cc2C1 (stereo not shown) [Example 15]", "4.00 to 5.30"],
  ["O=C(O)CC1Cc2ccc(S(=O)(=O)N3CCN(c4ccc(Cl)c(Cl)c4)CC3)cc2C1 (stereo not shown) [Example 3]", "4.00 to 5.30"],
  ["C[C@@H]1CN(c2cc(F)c(C(F)(F)F)c(F)c2)C[C@H](C)N1S(=O)(=O)c1cccc2c1CC(C(=O)O)C2 (stereo partly shown) [Example 121]", "4.00 to 5.30"],
  ["O=C(O)C1CCc2ccc(S(=O)(=O)N3CC=C(c4ccc(C(F)(F)F)cc4)CC3)cc21 (stereo not shown) [Example 22]", "> 5.30"],
  ["COC(=O)[C@H]1CN(S(=O)(=O)c2ccc3c(c2)C(C(=O)O)CC3)CCN1c1ccc(C(F)(F)F)cn1 (stereo partly shown) [Example 39]", "> 5.30"]
]}
